Source listed as the supplement of paper PMC11208160.

protocol: recombinant UMI read abundance after kanamycin selection (control-corrected) (log10(CPM+1)); higher = more efficient recombination; extreme values may be limits of the assay; sequences stand for … in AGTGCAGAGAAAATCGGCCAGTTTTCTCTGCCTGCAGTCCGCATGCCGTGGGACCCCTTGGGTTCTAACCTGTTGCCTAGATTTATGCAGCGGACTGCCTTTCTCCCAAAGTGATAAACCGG…AGGTTGGTTTCACT; site = the 11-nt donor;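 further: IS621 bridge recombinase in Escherichia coli cells against a fixed T5 target plasmid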
Lab note: anything with recombinant UMI read abundance (log10) at or over 0.01 counts as Yes; the rest go in No.

{"columns": ["construct sequence", "answer label"],
 "data": [
  ["AGGAAGGCATGGACCGGTTTTCCCGGTAATCCGTATTTGCA (site AGGAAGACTTG)", "Yes"],
  ["CGAGCGCCATGGACCGGTTTTCCCGGTAATCCGTATTTGTG (site CCAGCGCCTCA)", "Yes"],
  ["CACTTGGCATGGACCGGTTTTCCCGGTAATCCGTATTTGGC (site CACTTGGCTCC)", "Yes"]
]}

Query: Is reported recombinant UMI read abundance (log10) greater than or equal to 0.01 here: TGATCATCATGGACCGGTTTTCCCGGTAATCCGTATTTGCT (site GGATCATCTAG)
Response: Yes

Query: Do the same for CGGACATCATGGACCGGTTTTCCCGGTAATCCGTATTTGCT (site CGAACATCTAG) please
Response: Yes
